Experiment: NCI Yeast Anticancer Drug Screen. Data for the mec2-1 strain (AID 157)
Settings: S. cerevisiae mec2-1 strain, at 100.0 µM
The panel holds about 79,000 compounds, 15% with a hit somewhere; the sample as a whole holds those more often. The source made the active and inactive calls. Cut-off read from the data, not from the text of the source: active = growth inhibition above about 70%; inactive = the rest.
Classes used: active, inactive

compound=CCO/C=C1\SC(=S)N(c2ccc(OCC)cc2)C1=O class_label=inactive
compound="Cc1cccc(C)c1NC(=O)C(C#N)C1=C(Cl)C(=O)c2ccccc2C1=O (stereo not drawn)" class_label=active
compound="COc1ccc2c3c1OC(C)C31CC(=O)CCC1CC2 (stereo not drawn)" class_label=inactive
compound=O=C1Nc2ccc(Br)cc2C1=Nc1cccnc1 class_label=inactive
compound=O=C(CCSC1=NCCCN1)c1ccc(F)cc1 class_label=active
compound=O=C1Oc2ccccc2C(=O)/C1=C/N1C(=O)N/C(=C\c2ccccc2Br)C1=O class_label=active
compound=CC1=CC(C)(C)SC(SSSC2=NC(C)=CC(C)(C)S2)=N1 class_label=inactive
compound=NC(=S)N1N=C2c3ccccc3CC[C@H]2[C@@H]1c1ccc(Cl)cc1 class_label=active
compound=CC1=C(C)C(=O)C2=C(OCCO2)C1=O class_label=inactive
compound=O=C1c2cccc3cccc(c23)C(=O)N1O class_label=active
compound="N#CCC(=O)N/N=C(\\c1ccccc1)C(c1ccccc1)C1(O)C(=O)Nc2c(Cl)ccc(Cl)c21 (stereo not drawn)" class_label=inactive
compound="CC1=CN2C(c3ccccc3)=NON(c3ccc(C)cn3)C2C=C1 (stereo not drawn)" class_label=inactive
compound=CCN(CC)CCNc1ccc2ncn3c4ccc(O)cc4c(=O)c1c23 class_label=inactive
compound=CC(C)S(=O)(=O)/C=C\S(=O)(=O)C(C)C class_label=active
compound=CCCNC(=O)OCc1c(COC(=O)NCCC)c(-c2ccc(Cl)c(Cl)c2)n2c1CCC2 class_label=inactive
compound=CSc1nc(-c2ccccc2)nc(=[N+]2CCOCC2)s1 class_label=active
compound="O=C(O)c1ccccc1C(=O)OC1CCc2ccccc2C1 (stereo not drawn)" class_label=inactive
compound=CC(C)(CN1CCCCC1)C(=O)/C=C/c1c(Cl)cccc1Cl class_label=active
compound=COc1ccc2cc3c4cc5c(cc4cc[n+]3cc2c1OC)OCO5 class_label=active
compound=Brc1ccc(B2Nc3ccccc3N2)cc1 class_label=inactive
compound=O=C(Cc1ccccc1)NNc1nc(NNC(=O)c2ccncc2)nc(Nc2ccc(Cl)cc2)n1 class_label=inactive
compound=Nc1ccc2c(c1)C(=O)c1c(F)cccc1-2 class_label=inactive
compound=Cc1ccc(NC(Nc2ccc(C)cc2C)=C(C(Cl)=C(Cl)Cl)[N+](=O)[O-])c(C)c1 class_label=active

* * *

Assay: NCI Yeast Anticancer Drug Screen. Data for the rad50 strain (AID 155);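 note: 0% = growth of vehicle-only cultures of the same strain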
Settings: S. cerevisiae rad50 strain growth inhibition; at 1.2 µM; hits give high values
Compounds without any hit were thinned out: in the full panel of roughly 79,000, 15% have a hit. Activity calls are given as the source filed them. Rule as the data show it: active = growth inhibition above about 70%; inactive = the rest.
Catalogue of compounds with associated growth inhibition
measured.property: growth inhibition

compound=Cc1c(Cl)c(C)c(Cl)c(O)c1Cl data_value="-14% (inactive)"
compound=O=C(/N=N/C(=O)Oc1ccccc1)Oc1ccccc1 data_value="-81% (inactive)"
compound=CC(C)NCCCNc1c2ccccc2nc2cccc([N+](=O)[O-])c12 data_value="90% (active)"
compound=Cc1cc(Cl)ccc1NC(=O)/C(Cl)=C(/Cl)C(=O)O data_value="1% (inactive)"
compound=O=C(O)CNC(c1ccccc1)(c1ccccc1)c1ccccc1 data_value="-10% (inactive)"
compound=CCN(CC)CCNc1ccc2nc(C)n3c4ccc(OC)cc4c(=O)c1c23 data_value="41% (inactive)"
compound="CC1=NN(C(=O)CC(=O)NC(=O)/C=C\\c2ccccc2)C(=O)C1N=Nc1ccc([N+](=O)[O-])cc1 (stereo unspecified)" data_value="-7% (inactive)"
compound="c1ccc2c(c1)N=C1CCCC3CCCC123 (stereo unspecified)" data_value="-2% (inactive)"
compound="O=C1C(=C2CCCC2)CCC1CN1CCCCC1 (stereo unspecified)" data_value="2% (inactive)"
compound=O=C(NCCNCCNC(=O)c1cc(-c2ccccc2)nc2ccccc12)c1cc(-c2ccccc2)nc2ccccc12 data_value="-3% (inactive)"
compound=CC(C)OC(=O)NNc1c(Cl)cc(Cl)cc1Cl data_value="-2% (inactive)"

* * *

Assay: NCI Yeast Anticancer Drug Screen. Data for the bub3 strain (AID 167)
Details: S. cerevisiae bub3 mutant strain, at 100.0 µM, hits give high values
The panel holds about 79,000 compounds, 15% with a hit somewhere; the sample as a whole holds those more often.
Catalogue of molecules with associated growth inhibition
measured.property: growth inhibition (%)

molecule=CC1=COC2=C(C)C(=O)C(=O)c3c(C)ccc1c32 value_units=% data_value=93
molecule=CCCN=Cc1cc(Cc2ccc(O)c(C=NCCC)c2)ccc1O value_units=% data_value=97
molecule=Cc1ccc([N+](=O)[O-])c2c(NCCC[N+](C)(C)[O-])c3ccccc3nc12 value_units=% data_value=-17
molecule=CN(C)CC(CN(C)C)C(=O)/C=C/c1ccc(Cl)cc1Cl value_units=% data_value=97
molecule="Cc1cccc(C)c1NC(=O)C(C#N)C1=C(Cl)C(=O)c2ccccc2C1=O (configuration not stated)" value_units=% data_value=95
molecule=Cc1ccc(S(=O)(=O)Nc2cccc3cccnc23)cc1 value_units=% data_value=15
molecule="O=C(O)c1cc2c(cc1S(=O)(=O)O)C1C(C3C2C2(Cl)C(Cl)=C(Cl)C3(Cl)C2(Cl)Cl)C2(Cl)C(Cl)=C(Cl)C1(Cl)C2(Cl)Cl (configuration not stated)" value_units=% data_value=94
molecule="N#CCC(=O)N/N=C(\\c1ccccc1)C(c1ccccc1)C1(O)C(=O)Nc2c(Cl)ccc(Cl)c21 (configuration not stated)" value_units=% data_value=24
molecule=CC(=O)N1C=Cc2c(c(C)c3c([nH]c4ccccc43)c2C)C1 value_units=% data_value=96
molecule=O=C(Cc1ccccc1)NNc1nc(NNC(=O)c2ccncc2)nc(Nc2ccc([N+](=O)[O-])cc2)n1 value_units=% data_value=15
molecule="CCC(C)COC(=O)Nc1cccc(Cl)c1 (configuration not stated)" value_units=% data_value=99
molecule=CN(C)CCNCCCNc1c2ccccc2nc2cccc([N+](=O)[O-])c12 value_units=% data_value=80
molecule=NC(=S)N1N=C2c3ccccc3CC[C@@H]2[C@@H]1c1ccccc1 value_units=% data_value=90
molecule=CCN(CC)C(=S)N/N=C(\C)c1ccccc1O value_units=% data_value=99
molecule=CCCCS/C(=C(/C#N)C(N)=O)c1cc2c([nH]1)CCCC2 value_units=% data_value=81
molecule=COC(=O)c1ccccc1N=NNc1cccc(SC)c1 value_units=% data_value=89
molecule=COc1ccc2cc3c4cc5c(cc4cc[n+]3cc2c1OC)OCO5 value_units=% data_value=98
molecule=COc1cc2oc3ccccc3c(=O)c2cc1CSc1ccccc1N value_units=% data_value=74
molecule=O=C(Cc1ccccc1)NNc1nc(NNC(=O)c2ccncc2)nc(Nc2ccc(Cl)cc2)n1 value_units=% data_value=-7
molecule=CC1=CC(=C(c2ccc(N)c(C)c2)c2ccc(N)c(C)c2)C=CC1=N value_units=% data_value=96
molecule=CN(C)CCCn1c2c3ccccc3ccc2c2oc(=O)c3ccccc3c21 value_units=% data_value=98
molecule=Oc1c2c(c(O)c3ccccc13)C1(N=N2)c2ccccc2Oc2ccccc21 value_units=% data_value=93

* * *

Catalogue of molecules with associated growth inhibition
Test: NCI Yeast Anticancer Drug Screen. Data for the sgs1 mgt1 strain (AID 161);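 note: 0% = growth of cultures given vehicle only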
Conditions: S. cerevisiae sgs1 mgt1 strain, at 50.0 µM, hits give high values
Compounds without any hit were thinned out: in the full panel of roughly 79,000, 15% have a hit.
measured.property: growth inhibition (%)

molecule=CN(C)CCCn1c2c3ccccc3ccc2c2oc(=O)c3ccccc3c21 measured_property="growth inhibition" value_units=% data_value=98.7
molecule="CCC(OC(C)=O)C1CC(C(C)C)CCC1C (stereo unspecified)" measured_property="growth inhibition" value_units=% data_value=21.8
molecule=O=[N+]([O-])c1cc(Cl)ccc1S(=O)(=O)c1ccc(Cl)cc1[N+](=O)[O-] measured_property="growth inhibition" value_units=% data_value=84.3
molecule="CC(=O)CC(c1ccccc1)c1c(O)c2ccccc2oc1=O (stereo unspecified)" measured_property="growth inhibition" value_units=% data_value=55.4
molecule=CCCNCC(=O)O[C@]1(CC)C(=O)OCc2c1cc1n(c2=O)Cc2cc3ccccc3nc2-1 measured_property="growth inhibition" value_units=% data_value=79
molecule=CCS(=O)(=O)Nc1ccc(Nc2c3ccccc3nc3ccccc23)c(OC)c1 measured_property="growth inhibition" value_units=% data_value=80.8
molecule=CC(C)S(=O)(=O)/C=C\S(=O)(=O)C(C)C measured_property="growth inhibition" value_units=% data_value=72
molecule=CN1CCN(C(=O)c2cccc3cccc(C(=O)O)c23)CC1 measured_property="growth inhibition" value_units=% data_value=77.6
molecule=O=C1C=CC(=Nc2cccc3c2-c2ccccc2C3=O)O1 measured_property="growth inhibition" value_units=% data_value=99.6
molecule="O=C1C(CCSc2ccccc2)C(=O)N(c2ccccc2)C1c1ccccc1 (stereo unspecified)" measured_property="growth inhibition" value_units=% data_value=92.3
molecule=CN(C)CC1=Nc2cccc3cccc(c23)N1 measured_property="growth inhibition" value_units=% data_value=88.6
